Can you tell me Papp A→B for the items I'm about to list?
# methodNotes: Apparent permeability from apical to basolateral side in human Caco-2 cells
# Assay type: ADME, cell-based
# conditionParameters: read-out: permeability
Numbers only, in ×10⁻⁶ cm/s.

Recorded Papp A→B, per entry:
# smilesRepresentation, result
data = [
    ("O=C1C[C@@H](c2ccc(O)cc2)Oc2cc(O)cc(O)c21", 37.8),
    ("COc1ccc([C@@H]2CC(=O)c3c(O)cc(O)cc3O2)cc1O", 47.1),
]

Please look at the following compound next.
Query :: Item COc1ccc(-c2cc(=O)c3c(O)cc(O)cc3o2)cc1O has what recorded Papp A→B?
Result :: 76.2

====

# methodNotes: Apparent permeability from apical to basolateral side in human Caco-2 cells assessed as drug recovery
# Format: ADME, cell-based
# conditionParameters: read-out: Activity
Use T when the recorded recovery is no lower than 60%; use F when it is lower.

Observe how each entry below is paired with its result.
# smilesRepresentation, class
measured = [
    ("C[C@@H]1O[C@@H](O[C@H]2[C@H](Oc3cc(O)c4c(c3)O[C@H](c3ccc(O)cc3)CC4=O)O[C@H](CO)[C@@H](O)[C@@H]2O)[C@H](O)[C@H](O)[C@H]1O", "T"),
    ("O=C1C[C@@H](c2ccc(O)cc2)Oc2cc(O)cc(O)c21", "F"),
    ("COc1ccc([C@@H]2CC(=O)c3c(O)cc(O)cc3O2)cc1O", "F"),
    ("COc1ccc([C@@H]2CC(=O)c3c(O)cc(O[C@@H]4O[C@H](CO[C@@H]5O[C@@H](C)[C@H](O)[C@@H](O)[C@H]5O)[C@@H](O)[C@H](O)[C@H]4O)cc3O2)cc1O", "T"),
]

Switching to the query record.
Query :: Exam item: decide whether the reported recovery for COc1ccc(-c2cc(=O)c3c(O)cc(O[C@@H]4O[C@H](CO[C@@H]5O[C@@H](C)[C@H](O)[C@@H](O)[C@H]5O)[C@@H](O)[C@H](O)[C@H]4O)cc3o2)cc1O is at least 60%.
Result :: T

====

# methodNotes: Ratio of permeability from basolateral to apical side over apical to basolateral side in human Caco-2 cells
# Type: ADME, cell-based
Please go through the items and note down their efflux ratio.
Give bare numbers.

# smilesRepresentation, efflux ratio
measured = [
    ("COc1ccc([C@@H]2CC(=O)c3c(O)cc(O)cc3O2)cc1O", 0.6),
]

Shifting focus to the compound that follows.
Query :: Entry COc1ccc(-c2cc(=O)c3c(O)cc(O)cc3o2)cc1O : reported efflux ratio = ?
Result :: 0.2

====

# methodNotes: Apparent permeability from basolateral to apical side in human Caco-2 cells assessed as drug recovery
# Type: ADME, cell-based
# conditionParameters: read-out: Activity
propertyMeasured: recovery
Hey, just the number and the unit after it is fine.

Worked examples follow.
# smilesRepresentation, recovery
rows = [
    ("C[C@@H]1O[C@@H](O[C@H]2[C@H](Oc3cc(O)c4c(c3)O[C@H](c3ccc(O)cc3)CC4=O)O[C@H](CO)[C@@H](O)[C@@H]2O)[C@H](O)[C@H](O)[C@H]1O", "88.4%"),
    ("COc1ccc([C@@H]2CC(=O)c3c(O)cc(O)cc3O2)cc1O", "70.1%"),
    ("COc1ccc(-c2cc(=O)c3c(O)cc(O[C@@H]4O[C@H](CO[C@@H]5O[C@@H](C)[C@H](O)[C@@H](O)[C@H]5O)[C@@H](O)[C@H](O)[C@H]4O)cc3o2)cc1O", "68.9%"),
    ("COc1ccc(-c2cc(=O)c3c(O)cc(O)cc3o2)cc1O", "66.8%"),
    ("O=C1C[C@@H](c2ccc(O)cc2)Oc2cc(O)cc(O)c21", "93%"),
]

Here is another molecule to look at.
Query :: Which recovery value is on record for COc1ccc([C@@H]2CC(=O)c3c(O)cc(O[C@@H]4O[C@H](CO[C@@H]5O[C@@H](C)[C@H](O)[C@@H](O)[C@H]5O)[C@@H](O)[C@H](O)[C@H]4O)cc3O2)cc1O ?
Result :: 80.2%

====

# methodNotes: Stability in hank's balanced salt solution at 15 uM after 120 mins
# Format: physicochemical
# conditionParameters: read-out: Stability
Please respond with reported remaining at 2 h, 15 µM for every item in the list.
Give bare numbers, in %.

Please review the entries below; each comes with its answer.
# smilesRepresentation, remaining at 2 h, 15 µM [%]
records = [
    ("COc1ccc(-c2cc(=O)c3c(O)cc(O)cc3o2)cc1O", 101),
    ("COc1ccc([C@@H]2CC(=O)c3c(O)cc(O[C@@H]4O[C@H](CO[C@@H]5O[C@@H](C)[C@H](O)[C@@H](O)[C@H]5O)[C@@H](O)[C@H](O)[C@H]4O)cc3O2)cc1O", 87.9),
    ("COc1ccc([C@@H]2CC(=O)c3c(O)cc(O)cc3O2)cc1O", 91.1),
    ("COc1ccc(-c2cc(=O)c3c(O)cc(O[C@@H]4O[C@H](CO[C@@H]5O[C@@H](C)[C@H](O)[C@@H](O)[C@H]5O)[C@@H](O)[C@H](O)[C@H]4O)cc3o2)cc1O", 88.6),
    ("C[C@@H]1O[C@@H](O[C@H]2[C@H](Oc3cc(O)c4c(c3)O[C@H](c3ccc(O)cc3)CC4=O)O[C@H](CO)[C@@H](O)[C@@H]2O)[C@H](O)[C@H](O)[C@H]1O", 92.2),
]

With those in mind, consider the next compound.
Query :: What remaining at 2 h, 15 µM value was documented for this compound, O=C1C[C@@H](c2ccc(O)cc2)Oc2cc(O)cc(O)c21 ?
Result :: 100

Ref: ChEMBL document CHEMBL1157141
